test system: K562 CRISPRi cells; test: Perturb-seq pooled growth measurement (sgRNA counts, growth phenotype γ, relative activity); assay type: cell-based, human; details: γ relative to perfectly matched sgRNA (_00) of the same gene, day 5
relative_activity_day5 of 0.5 or higher: true. Under 0.5: false.

Item POLR2H_ + _184081251.23-P1P2_08 (guide GGGGCCACGCGAGCAGCAGA; listed as DNA, chemistry not fully specified) with relative_activity_day5 of 0.5 or above?
false

hey, is relative_activity_day5 for this one >= 0.5? POLR1D_ + _28196016.23-P1_03 (guide GGTAAGCAAGGACCGACCGA; listed as DNA, chemistry not fully specified)
true

Decide: relative_activity_day5 of CDC23_ −_137548987.23-P1P2_04 (guide GACAGCCAACGGGACCATGG; listed as DNA, chemistry not fully specified) >= 0.5?
true

Identify whether the reported relative_activity_day5 of the following substance is 0.5 or greater: BCR_ + _23523092.23-P1P2_05 (guide GCGCGCGGCGCCCGTCTCAG; listed as DNA, chemistry not fully specified)
false

Is reported relative_activity_day5 greater than or equal to 0.5 here: HSPA5_ + _128003624.23-P1P2_08 (guide GAGCCGAGTGGGCGACGGTG; listed as DNA, chemistry not fully specified)
true

From: patent US20220259593A1
